Tested on: WT HIV-1
TEST PROTOCOL: Single-round infectivity assay, WT RT vector
Format: cell-based
EXPERIMENTAL PARAMETERS: calculated from CC50 and WT EC50
Examples of compounds with documented TI (therapeutic index) follow.

{"COMPOUND": "Cn1c(Cn2ccc(C(F)(F)F)c(Oc3cc(Cl)cc(C#N)c3)c2=O)n[nH]c1=O [DOR, doravirine, reference compound]", "TI (therapeutic index)": ">25,000"}

Need TI (therapeutic index), item Cc1cc(/C=C/C#N)cc(C)c1Nc1ncc2ncn(-c3c(C)cc(/C=C/C#N)cc3C)c2n1
18,423

Need TI (therapeutic index), item Cc1cc(/C=C/C#N)cc(C)c1-n1cnc2cnc(Nc3ccc4cc(/C=C/C#N)ccc4c3)nc21
1,676

Need TI (therapeutic index), item Cc1cc(/C=C/C#N)cc(C)c1Nc1ncc(N)c(Nc2c(C)cc(/C=C/C#N)cc2C)n1
1,651

Need TI (therapeutic index), item Cc1cc(/C=C/C#N)cc(C)c1-n1cnc2cnc(Nc3ccc(/C=C/C#N)cc3)nc21
>25,000

Need TI (therapeutic index), item Cc1cc(/C=C/C#N)cc(C)c1Nc1nc(Nc2ccc3cc(C#N)ccc3c2)ncc1N
10,000

Need TI (therapeutic index), item Cc1cc(/C=C/C#N)cc(C)c1Nc1nc(Nc2ccc3cc(/C=C/C#N)ccc3c2)ncc1N
1,588

====

Examples of molecules with documented EC50 follow.
Test system: HIV-1 NNRTI-resistant mutant Y181C
TEST PROTOCOL: Single-round infectivity assay, Y181C
Format: cell-based
EXPERIMENTAL PARAMETERS: Human immunodeficiency virus 1, read-out: EC50 Y181C

These recorded examples may help you get a feel for the data.
{"MOLECULE": "Cc1cc(/C=C/C#N)cc(C)c1-n1cnc2cnc(Nc3ccc4cc(C#N)ccc4c3)nc21 [Compound 10]", "EC50": "0.0477 µM"}
{"MOLECULE": "Cc1cc(/C=C/C#N)cc(C)c1Nc1nc(Nc2ccc3cc(C#N)ccc3c2)ncc1N [Compound 7]", "EC50": "0.0156 µM"}
{"MOLECULE": "O=C1Nc2ccc(Cl)cc2[C@@](C#CC2CC2)(C(F)(F)F)O1 [EFV, efavirenz, reference compound]", "EC50": "0.0016 µM"}

Need EC50, item Cc1cc(/C=C/C#N)cc(C)c1Nc1nc(Nc2ccc3cc(/C=C/C#N)ccc3c2)ncc1N [Compound 8]
0.264 µM

====

TEST PROTOCOL: Cellular cytotoxicity, ATP-dependent luminescence assay
Type: cell-based
Label Fulfilled when CC50 < 30 µM; otherwise Not fulfilled.

Use the examples below as a reference point.
{"MOLECULE": "Cc1cc(/C=C/C#N)cc(C)c1-n1cnc2cnc(Nc3ccc4cc(C#N)ccc4c3)nc21 [Compound 10]", "GROUP": "Fulfilled"}
{"MOLECULE": "Cc1cc(/C=C/C#N)cc(C)c1Nc1nc(Nc2ccc3cc(C#N)ccc3c2)ncc1N [Compound 7]", "GROUP": "Fulfilled"}
{"MOLECULE": "Cc1cc(/C=C/C#N)cc(C)c1Nc1nc(Nc2ccc(/C=C/C#N)cc2)ncc1N [Compound 12]", "GROUP": "Not fulfilled"}
{"MOLECULE": "Cc1cc(/C=C/C#N)cc(C)c1-n1cnc2cnc(Nc3ccc4cc(/C=C/C#N)ccc4c3)nc21 [Compound 11]", "GROUP": "Fulfilled"}
{"MOLECULE": "O=C1Nc2ccc(Cl)cc2[C@@](C#CC2CC2)(C(F)(F)F)O1 [EFV, efavirenz, reference compound]", "GROUP": "Not fulfilled"}

Given the entry Cc1cc(/C=C/C#N)cc(C)c1Nc1ncc(N)c(Nc2c(C)cc(/C=C/C#N)cc2C)n1 [Compound 6] , would its reported CC50 be below 30 µM?
Not fulfilled

====

Tested on: WT HIV-1
TEST PROTOCOL: Single-round infectivity assay, WT RT vector
Type: cell-based
EXPERIMENTAL PARAMETERS: calculated from CC50 and WT EC50
READOUT LABEL: TI (therapeutic index)

{"COMPOUND": "O=C1Nc2ccc(Cl)cc2[C@@](C#CC2CC2)(C(F)(F)F)O1 [EFV, efavirenz, reference compound]", "READOUT LABEL": "TI (therapeutic index)", "RECORDED RESULT": ">25,000"}

Need TI (therapeutic index), item Cc1cc(/C=C/C#N)cc(C)c1Nc1ccnc(Nc2ccc(C#N)cc2)n1 [RPV, rilpivirine, reference compound]
>25,000

Need TI (therapeutic index), item Cc1cc(/C=C/C#N)cc(C)c1Nc1nc(Nc2ccc(/C=C/C#N)cc2)ncc1N
>25,000

Need TI (therapeutic index), item Cc1cc(/C=C/C#N)cc(C)c1-n1cnc2cnc(Nc3ccc4cc(C#N)ccc4c3)nc21
4,696

====

Test system: HIV-1 RT-resistant mutant M184V
TEST PROTOCOL: Single-round infectivity assay, M184V
Assay type: cell-based
EXPERIMENTAL PARAMETERS: read-out: EC50 M184V; single-round infection, n = 3
READOUT LABEL: pEC50
Please note pEC50 is a logarithmic value: minus log10 of concentration in mol/L. Answer with that number alone.

Form field: pEC50 recorded for Cc1cc(/C=C/C#N)cc(C)c1-n1cnc2cnc(Nc3ccc4cc(C#N)ccc4c3)nc21 with HIV-1 RT-resistant mutant M184V (enter value)
8.51

====

System: HIV-1 NNRTI-resistant mutant K103N/P225H
TEST PROTOCOL: Single-round infectivity assay, K103N/P225H
Type: cell-based
EXPERIMENTAL PARAMETERS: Human immunodeficiency virus 1, read-out: EC50 K103N/P225H
READOUT LABEL: pEC50
Please note pEC50 is a logarithmic value: minus log10 of concentration in mol/L. Answer with that number alone.

Need pEC50, item O=C1Nc2ccc(Cl)cc2[C@@](C#CC2CC2)(C(F)(F)F)O1 [EFV, efavirenz, reference compound]
7.30

Need pEC50, item Cc1cc(/C=C/C#N)cc(C)c1Nc1nc(Nc2ccc(/C=C/C#N)cc2)ncc1N
8.80

Need pEC50, item Cc1cc(/C=C/C#N)cc(C)c1Nc1nc(Nc2ccc3cc(C#N)ccc3c2)ncc1N
7.60

Need pEC50, item Cc1cc(/C=C/C#N)cc(C)c1-n1cnc2cnc(Nc3ccc4cc(C#N)ccc4c3)nc21
6.99

====

Test system: WT HIV-1
TEST PROTOCOL: Single-round infectivity assay, WT RT vector
Format: cell-based
EXPERIMENTAL PARAMETERS: Human immunodeficiency virus 1, read-out: EC50 WT
Examples of molecules with documented EC50 follow.
// units = nM; emit number, no label

{"MOLECULE": "Cc1cc(/C=C/C#N)cc(C)c1Nc1ncc2ncn(-c3c(C)cc(/C=C/C#N)cc3C)c2n1 [Compound 9]", "TEST TARGET": "WT HIV-1", "EC50 (nM)": 10.4}

Need EC50, item Cc1cc(/C=C/C#N)cc(C)c1Nc1nc(Nc2ccc3cc(C#N)ccc3c2)ncc1N [Compound 7]
2.3

Need EC50, item O=C1Nc2ccc(Cl)cc2[C@@](C#CC2CC2)(C(F)(F)F)O1 [EFV, efavirenz, reference compound]
0.9

Need EC50, item Cc1cc(/C=C/C#N)cc(C)c1-n1cnc2cnc(Nc3ccc4cc(/C=C/C#N)ccc4c3)nc21 [Compound 11]
10.2

Need EC50, item Cc1cc(/C=C/C#N)cc(C)c1-n1cnc2cnc(Nc3ccc(/C=C/C#N)cc3)nc21 [Compound 13]
1.4

====

Test system: HIV-1 NNRTI-resistant mutant H221Y
TEST PROTOCOL: Single-round infectivity assay, H221Y
Type: cell-based
EXPERIMENTAL PARAMETERS: Human immunodeficiency virus 1, read-out: EC50 H221Y
READOUT LABEL: pEC50
Please note pEC50 is a logarithmic value: minus log10 of concentration in mol/L. Answer with that number alone.

These recorded examples may help you get a feel for the data.
{"MOLECULE": "Cc1cc(/C=C/C#N)cc(C)c1Nc1ncc2ncn(-c3c(C)cc(/C=C/C#N)cc3C)c2n1", "pEC50": 7.71}
{"MOLECULE": "Cc1cc(/C=C/C#N)cc(C)c1Nc1ccnc(Nc2ccc(C#N)cc2)n1 [RPV, rilpivirine, reference compound]", "pEC50": 8.89}
{"MOLECULE": "O=C1Nc2ccc(Cl)cc2[C@@](C#CC2CC2)(C(F)(F)F)O1 [EFV, efavirenz, reference compound]", "pEC50": 8.66}
{"MOLECULE": "Cc1cc(/C=C/C#N)cc(C)c1Nc1ncc(N)c(Nc2c(C)cc(/C=C/C#N)cc2C)n1", "pEC50": 7.10}
{"MOLECULE": "Cc1cc(/C=C/C#N)cc(C)c1-n1cnc2cnc(Nc3ccc4cc(C#N)ccc4c3)nc21", "pEC50": 8.47}
{"MOLECULE": "Cc1cc(/C=C/C#N)cc(C)c1Nc1nc(Nc2ccc3cc(/C=C/C#N)ccc3c2)ncc1N", "pEC50": 7.73}

Form field: pEC50 recorded for Cc1cc(/C=C/C#N)cc(C)c1-n1cnc2cnc(Nc3ccc(/C=C/C#N)cc3)nc21 with HIV-1 NNRTI-resistant mutant H221Y (enter value)
8.59

Form field: pEC50 recorded for Cc1cc(/C=C/C#N)cc(C)c1-n1cnc2cnc(Nc3ccc4cc(/C=C/C#N)ccc4c3)nc21 with HIV-1 NNRTI-resistant mutant H221Y (enter value)
7.77

Form field: pEC50 recorded for Cc1cc(/C=C/C#N)cc(C)c1Nc1nc(Nc2ccc(/C=C/C#N)cc2)ncc1N with HIV-1 NNRTI-resistant mutant H221Y (enter value)
8.80

Form field: pEC50 recorded for Cc1cc(/C=C/C#N)cc(C)c1Nc1nc(Nc2ccc3cc(C#N)ccc3c2)ncc1N with HIV-1 NNRTI-resistant mutant H221Y (enter value)
8.55

Form field: pEC50 recorded for Cn1c(Cn2ccc(C(F)(F)F)c(Oc3cc(Cl)cc(C#N)c3)c2=O)n[nH]c1=O [DOR, doravirine, reference compound] with HIV-1 NNRTI-resistant mutant H221Y (enter value)
8.34

Data credit: paper PMC7821153
